Every entry's value here was drawn from the supplement of paper PMC10307832.

Listed compounds paired with reported relative viability
- System: ChaGo-K-1
- method: relative viability (nuclei count vs DMSO), 5 days (fraction); higher = more cells survive
- stated_conditions: first compound 0.1581 µM
The answer should be written as a number, with no unit following it.

What value of relative viability on ChaGo-K-1 does COc1cc2nccc(Oc3ccc(NC(=O)Nc4cc(C)on4)c(Cl)c3)c2cc1OC [Tivozanib] + CC(=O)c1c(C)c2cnc(Nc3ccc(N4CCNCC4)cn3)nc2n(C2CCCC2)c1=O [Palbociclib] (partner 0.5 µM) have?
0.947

What value of relative viability on ChaGo-K-1 does COc1cc2nccc(Oc3ccc(NC(=O)Nc4cc(C)on4)c(Cl)c3)c2cc1OC [Tivozanib] + O=C(CCCCCCC(=O)Nc1ccccc1)NO [Vorinostat] (partner 1 µM) have?
0.756

What value of relative viability on ChaGo-K-1 does Nc1ccn([C@@H]2O[C@H](CO)[C@@H](O)[C@@H]2O)c(=O)n1 [Cytarabine] + Cc1nc(Nc2ncc(C(=O)Nc3c(C)cccc3Cl)s2)cc(N2CCN(CCO)CC2)n1 [Dasatinib] (partner 0.075 µM) have?
0.182

----------
Listed molecules paired with reported relative viability
- Test system: NCI-H1915
- method: relative viability (nuclei count vs DMSO), 5 days (fraction); higher = more cells survive
- stated_conditions: first compound 0.006325 µM
The answer should be written as a number, with no unit following it.

Below: 2 molecules and their reported relative viability.
molecule	reported_result
CC(=O)O[C@@]12CO[C@@H]1C[C@H](O)[C@@]1(C)C(=O)[C@H](O)C3=C(C)[C@@H](OC(=O)[C@H](O)[C@@H](NC(=O)OC(C)(C)C)c4ccccc4)C[C@@](O)([C@@H](OC(=O)c4ccccc4)[C@H]21)C3(C)C [Docetaxel] + O=C(CCCCCCC(=O)Nc1ccccc1)NO [Vorinostat] (partner 1 µM)	0.174
CC(=O)O[C@@]12CO[C@@H]1C[C@H](O)[C@@]1(C)C(=O)[C@H](O)C3=C(C)[C@@H](OC(=O)[C@H](O)[C@@H](NC(=O)OC(C)(C)C)c4ccccc4)C[C@@](O)([C@@H](OC(=O)c4ccccc4)[C@H]21)C3(C)C [Docetaxel] + CC(=O)c1c(C)c2cnc(Nc3ccc(N4CCNCC4)cn3)nc2n(C2CCCC2)c1=O [Palbociclib] (partner 0.5 µM)	0.149

Let us examine a further case.
Which measured relative viability value corresponds to CC(=O)O[C@@]12CO[C@@H]1C[C@H](O)[C@@]1(C)C(=O)[C@H](O)C3=C(C)[C@@H](OC(=O)[C@H](O)[C@@H](NC(=O)OC(C)(C)C)c4ccccc4)C[C@@](O)([C@@H](OC(=O)c4ccccc4)[C@H]21)C3(C)C [Docetaxel] + CC1(C)CCC(c2ccc(Cl)cc2)=C(CN2CCN(c3ccc(C(=O)NS(=O)(=O)c4ccc(N[C@H](CCN5CCOCC5)CSc5ccccc5)c(S(=O)(=O)C(F)(F)F)c4)cc3)CC2)C1 [Navitoclax] (partner 0.5 µM) ?
0.102

----------
- Test system: NCI-H1437
- method: relative viability (nuclei count vs DMSO), 5 days (fraction); higher = more cells survive
- stated_conditions: first compound 0.006325 µM
measurement_type: relative viability
The answer should be written as a number, with no unit following it.

Below: 3 compounds and their reported relative viability.
compound	relative viability
CC(=O)O[C@@]12CO[C@@H]1C[C@H](O)[C@@]1(C)C(=O)[C@H](O)C3=C(C)[C@@H](OC(=O)[C@H](O)[C@@H](NC(=O)OC(C)(C)C)c4ccccc4)C[C@@](O)([C@@H](OC(=O)c4ccccc4)[C@H]21)C3(C)C [Docetaxel] + CC(=O)Nc1cccc(-n2c(=O)n(C3CC3)c(=O)c3c(Nc4ccc(I)cc4F)n(C)c(=O)c(C)c32)c1 [Trametinib] (partner 0.02 µM)	0.216
CC(=O)O[C@@]12CO[C@@H]1C[C@H](O)[C@@]1(C)C(=O)[C@H](O)C3=C(C)[C@@H](OC(=O)[C@H](O)[C@@H](NC(=O)OC(C)(C)C)c4ccccc4)C[C@@](O)([C@@H](OC(=O)c4ccccc4)[C@H]21)C3(C)C [Docetaxel] + O=C(CCCCCCC(=O)Nc1ccccc1)NO [Vorinostat] (partner 1 µM)	0.275
CC(=O)O[C@@]12CO[C@@H]1C[C@H](O)[C@@]1(C)C(=O)[C@H](O)C3=C(C)[C@@H](OC(=O)[C@H](O)[C@@H](NC(=O)OC(C)(C)C)c4ccccc4)C[C@@](O)([C@@H](OC(=O)c4ccccc4)[C@H]21)C3(C)C [Docetaxel] + COc1cc2c(Oc3ccc(NC(=O)C4(C(=O)Nc5ccc(F)cc5)CC4)cc3F)ccnc2cc1OCCCN1CCOCC1 [Foretinib] (partner 0.25 µM)	0.273

Let us examine a further case.
What value of relative viability on NCI-H1437 does CC(=O)O[C@@]12CO[C@@H]1C[C@H](O)[C@@]1(C)C(=O)[C@H](O)C3=C(C)[C@@H](OC(=O)[C@H](O)[C@@H](NC(=O)OC(C)(C)C)c4ccccc4)C[C@@](O)([C@@H](OC(=O)c4ccccc4)[C@H]21)C3(C)C [Docetaxel] + Cc1nc(Nc2ncc(C(=O)Nc3c(C)cccc3Cl)s2)cc(N2CCN(CCO)CC2)n1 [Dasatinib] (partner 0.075 µM) have?
0.174

----------
- Tested on: HCC-44
- method: relative viability (nuclei count vs DMSO), 5 days (fraction); higher = more cells survive
- stated_conditions: first compound 0.000632 µM
In plain terms, low relative viability, meaning strictly below 0.5, gives True, and everything else gives False.

Example cases with answers are listed next.
compound	target_or_system	qualitative_label
CC(=O)O[C@@]12CO[C@@H]1C[C@H](O)[C@@]1(C)C(=O)[C@H](O)C3=C(C)[C@@H](OC(=O)[C@H](O)[C@@H](NC(=O)OC(C)(C)C)c4ccccc4)C[C@@](O)([C@@H](OC(=O)c4ccccc4)[C@H]21)C3(C)C [Docetaxel] + C[C@@H](Oc1cc(-c2cnn(C3CCNCC3)c2)cnc1N)c1c(Cl)ccc(F)c1Cl [Crizotinib] (partner 1 µM)	HCC-44	False
CC(=O)O[C@@]12CO[C@@H]1C[C@H](O)[C@@]1(C)C(=O)[C@H](O)C3=C(C)[C@@H](OC(=O)[C@H](O)[C@@H](NC(=O)OC(C)(C)C)c4ccccc4)C[C@@](O)([C@@H](OC(=O)c4ccccc4)[C@H]21)C3(C)C [Docetaxel] + CS(=O)(=O)N1CCN(Cc2cc3nc(-c4cccc5[nH]ncc45)nc(N4CCOCC4)c3s2)CC1 [Pictilisib] (partner 1 µM)	HCC-44	True
CC(=O)O[C@@]12CO[C@@H]1C[C@H](O)[C@@]1(C)C(=O)[C@H](O)C3=C(C)[C@@H](OC(=O)[C@H](O)[C@@H](NC(=O)OC(C)(C)C)c4ccccc4)C[C@@](O)([C@@H](OC(=O)c4ccccc4)[C@H]21)C3(C)C [Docetaxel] + CC(C)C[C@H](NC(=O)[C@H](Cc1ccccc1)NC(=O)c1cnccn1)B(O)O [Bortezomib] (partner 0.002 µM)	HCC-44	False
CC(=O)O[C@@]12CO[C@@H]1C[C@H](O)[C@@]1(C)C(=O)[C@H](O)C3=C(C)[C@@H](OC(=O)[C@H](O)[C@@H](NC(=O)OC(C)(C)C)c4ccccc4)C[C@@](O)([C@@H](OC(=O)c4ccccc4)[C@H]21)C3(C)C [Docetaxel] + C[C@]1(O)C[C@@H](c2nc(-c3ccc4ccc(-c5ccccc5)nc4c3)c3c(N)nccn32)C1 [Linsitinib] (partner 1 µM)	HCC-44	False

Please turn your attention to the following entry.
In plain terms, does CC(=O)O[C@@]12CO[C@@H]1C[C@H](O)[C@@]1(C)C(=O)[C@H](O)C3=C(C)[C@@H](OC(=O)[C@H](O)[C@@H](NC(=O)OC(C)(C)C)c4ccccc4)C[C@@](O)([C@@H](OC(=O)c4ccccc4)[C@H]21)C3(C)C [Docetaxel] + COc1cccc2cc(-c3nc([C@H]4CC[C@H](C(=O)O)CC4)n4ncnc(N)c34)[nH]c12 [OSI-027] (partner 0.5 µM) come in under 0.5 for relative viability?
False

----------
- Tested on: NCI-H2085
- method: relative viability (nuclei count vs DMSO), 5 days (fraction); higher = more cells survive
- stated_conditions: first compound 0.01581 µM
measurement_type: relative viability
The answer should be written as a number, with no unit following it.

Below: 6 molecules and their reported relative viability.
molecule	relative viability
Nc1ccn([C@@H]2O[C@H](CO)[C@@H](O)[C@@H]2O)c(=O)n1 [Cytarabine] + CC(C)C[C@H](NC(=O)[C@H](Cc1ccccc1)NC(=O)c1cnccn1)B(O)O [Bortezomib] (partner 0.002 µM)	0.913
COc1cc2nccc(Oc3ccc(NC(=O)Nc4cc(C)on4)c(Cl)c3)c2cc1OC [Tivozanib] + CC1(C)CCC(c2ccc(Cl)cc2)=C(CN2CCN(c3ccc(C(=O)NS(=O)(=O)c4ccc(N[C@H](CCN5CCOCC5)CSc5ccccc5)c(S(=O)(=O)C(F)(F)F)c4)cc3)CC2)C1 [Navitoclax] (partner 0.5 µM)	1.1
Nc1ccn([C@@H]2O[C@H](CO)[C@@H](O)[C@@H]2O)c(=O)n1 [Cytarabine] + C[C@]1(O)C[C@@H](c2nc(-c3ccc4ccc(-c5ccccc5)nc4c3)c3c(N)nccn32)C1 [Linsitinib] (partner 1 µM)	0.89
COc1cc2nccc(Oc3ccc(NC(=O)Nc4cc(C)on4)c(Cl)c3)c2cc1OC [Tivozanib] + Cc1cc(Nc2cc(N3CCN(C)CC3)nc(Sc3ccc(NC(=O)C4CC4)cc3)n2)n[nH]1 [Tozasertib] (partner 0.1 µM)	0.699
Nc1ccn([C@@H]2O[C@H](CO)[C@@H](O)[C@@H]2O)c(=O)n1 [Cytarabine] + CC(=O)Nc1cccc(-n2c(=O)n(C3CC3)c(=O)c3c(Nc4ccc(I)cc4F)n(C)c(=O)c(C)c32)c1 [Trametinib] (partner 0.02 µM)	0.552
COc1cc2nccc(Oc3ccc(NC(=O)Nc4cc(C)on4)c(Cl)c3)c2cc1OC [Tivozanib] + CC(=O)Nc1cccc(-n2c(=O)n(C3CC3)c(=O)c3c(Nc4ccc(I)cc4F)n(C)c(=O)c(C)c32)c1 [Trametinib] (partner 0.02 µM)	0.602

What value of relative viability on NCI-H2085 does Nc1ccn([C@@H]2O[C@H](CO)[C@@H](O)[C@@H]2O)c(=O)n1 [Cytarabine] + CC1(C)CCC(c2ccc(Cl)cc2)=C(CN2CCN(c3ccc(C(=O)NS(=O)(=O)c4ccc(N[C@H](CCN5CCOCC5)CSc5ccccc5)c(S(=O)(=O)C(F)(F)F)c4)cc3)CC2)C1 [Navitoclax] (partner 0.5 µM) have?
1.08

What value of relative viability on NCI-H2085 does COc1cc2nccc(Oc3ccc(NC(=O)Nc4cc(C)on4)c(Cl)c3)c2cc1OC [Tivozanib] + C[C@@H](Oc1cc(-c2cnn(C3CCNCC3)c2)cnc1N)c1c(Cl)ccc(F)c1Cl [Crizotinib] (partner 1 µM) have?
0.87

What value of relative viability on NCI-H2085 does COc1cc2nccc(Oc3ccc(NC(=O)Nc4cc(C)on4)c(Cl)c3)c2cc1OC [Tivozanib] + Nc1nc2[nH]cc(CCc3ccc(C(=O)N[C@@H](CCC(=O)O)C(=O)O)cc3)c2c(=O)[nH]1 [Pemetrexed] (partner 0.2 µM) have?
0.964

What value of relative viability on NCI-H2085 does COc1cc2nccc(Oc3ccc(NC(=O)Nc4cc(C)on4)c(Cl)c3)c2cc1OC [Tivozanib] + NC(=O)Nc1cc(-c2cccc(F)c2)sc1C(=O)N[C@H]1CCCNC1 [AZD7762] (partner 0.2 µM) have?
0.862

What value of relative viability on NCI-H2085 does COc1cc2nccc(Oc3ccc(NC(=O)Nc4cc(C)on4)c(Cl)c3)c2cc1OC [Tivozanib] + CCNC(=O)c1noc(-c2cc(C(C)C)c(O)cc2O)c1-c1ccc(CN2CCOCC2)cc1 [Luminespib] (partner 0.01 µM) have?
0.4

What value of relative viability on NCI-H2085 does Nc1ccn([C@@H]2O[C@H](CO)[C@@H](O)[C@@H]2O)c(=O)n1 [Cytarabine] + CCNC(=O)c1noc(-c2cc(C(C)C)c(O)cc2O)c1-c1ccc(CN2CCOCC2)cc1 [Luminespib] (partner 0.01 µM) have?
0.459
